U251 CNS GI50 data

Q: Name the recorded GI50 for N#Cc1cccc(OCc2ccccc2COc2cccc(C#N)c2)c1 .
A: 19.4 µM

Q: Now try Cc1nnc(-c2ccc(-c3nc4ccccc4o3)cc2)o1 .
A: 16.4 µM

Q: Now try C#CCN(Cc1nc2cc(C(F)(F)F)ccc2nc1-c1ccccc1)c1ccc(F)c(F)c1 .
A: 66.5 µM

Q: Now try COc1cccc(C2=C(c3cn(C)c4cccc(OC)c34)C(=O)NC2=O)c1 .
A: 11.5 µM

Q: Now try O=C(Nc1cc(-c2cccnc2)nc(NCCCN2CCOCC2)n1)c1cc(Br)cc(C(F)(F)F)c1 .
A: 2.05 µM

Q: Now try ClCC#CCSc1ncnc2c1ncn2CC#CCCl .
A: 1.32 µM

Q: Now try O=S(=O)(O)ONC1=NCCN1 .
A: > 100 µM

Q: Now try CC(C)(C)C(=O)OCc1nc2cc3c(cc2c(=O)[nH]1)CCC3=O .
A: > 100 µM

Q: Now try O=C(Nc1ccc(I)cc1F)c1cc(I)ccc1O .
A: 0.661 µM

Q: Now try COc1ccc2c(c1)CC[C@@H]1[C@@H]2CC[C@]2(C)C=C(/C=C/C(=O)c3ccccc3)C[C@@H]12 .
A: 16.6 µM

Q: Now try C=CCCC(=O)N1C=CC(=O)[C@H](O)[C@@H]1/C=C/c1ccccc1 .
A: 7.44 µM

Q: Now try CC[C@H](NC(=O)[C@H](CS(=O)(=O)CC1CC1)N[C@@H](c1ccc(F)cc1)C(F)(F)F)C(=O)C(=O)NC1CC1 .
A: > 100 µM

* * *

Would you kindly list TGI for each of these compounds?
tested on: HCT-116 colon; experiment: NCI tumour cell line growth inhibition, 48 h

Q: Report TGI for O=C1N[C@@H](COc2ccc(C=Nc3ccc(CCc4ccc(N=Cc5ccc(OC[C@@H]6COC(=O)N6)cc5)cc4)cc3)cc2)CO1 tested on HCT-116 colon.
A: > 100 µM

Q: Now try COc1cc([C@@H]2c3cc4c(cc3C(OC3O[C@@H]5COC(C)O[C@H]5[C@H](O)[C@H]3O)C3COC(=O)[C@@H]32)OCO4)cc(OC)c1O (some centres undefined) .
A: > 50 µM

Q: Now try CC(=O)OCC1OC(N2C(S)=C(C#N)C(c3ccco3)C(C(C)=O)=C2c2ccccc2)C(OC(C)=O)C(OC(C)=O)C1OC(C)=O (centres undefined) .
A: > 100 µM

Q: Now try C#Cc1cc2c(N)c(C(=O)c3cc(OC)c(OC)c(OC)c3)[nH]c2cc1OC .
A: > 100 µM

* * *

test system: EKVX NSCLC; test: NCI tumour cell line growth inhibition, 48 h; in the data active = GI50 below about 0.43 µM; inactive = the rest
Your answer must be one of the following: active, inactive

Q: Query: recorded result category for COc1ccc2c(c1)CC[C@@H]1[C@@H]2CC[C@]2(C)C=C(/C=C/C(=O)c3ccccc3)C[C@@H]12 in this test
A: inactive

Q: Now try CC1(C)[C@@H](OC(N)=O)C=C[C@]2(C=O)[C@H]3CC[C@]4(C)[C@@H](c5ccc(=O)oc5)[C@@H](Cl)C[C@]4(O)C3=CC[C@@H]12 .
A: active

Q: Now try N#Cc1cccc(OCc2ccccc2COc2cccc(C#N)c2)c1 .
A: inactive

Q: Now try O=c1c2c3c(sc2n2c(-c4ccc(Br)cc4)nnc2n1Cc1ccccc1)CCCC3 .
A: inactive
